System: FT3469 (normal neural stem cell line)
Experiment: phenotypic distance (Euclidean, principal components) from DMSO controls (arbitrary units); higher = stronger morphological change;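 also: cell Painting imaging in 384-well plates, CellProfiler features reduced to at least 20 principal components, Euclidean distance versus same-plate DMSO vehicle wells (0.1% v/v), median over six images per well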
Conditions: 1000 nM; exposure time: 72 h
Counter-ions that a name gives are not always drawn.
result_type: phenotypic distance
// return just the number, without any unit appended

### Prompt Tell us which phenotypic distance value is on record for CC(C)N1CCN(c2ccc(OCC3COC(Cn4cncn4)(c4ccc(Cl)cc4Cl)O3)cc2)CC1 (stereo unspecified)
### Response 0.77

### Prompt Tell me phenotypic distance reported for "OCCN1CCN(CCCN2c3ccccc3Sc3ccc(Cl)cc32)CC1"
### Response 0.79

### Prompt Fill in phenotypic distance for record "COC(=O)Nc1nc2cc(Sc3ccccc3)ccc2[nH]1"
### Response 2.9

### Prompt Answer with the recorded phenotypic distance for the compound listed here: N=C(N)NCc1cccc(I)c1 [Iobenguane sulfate]
### Response 0.871

### Prompt State its phenotypic distance: C[C@@H]1CN([C@H]2CC[C@](C#N)(c3ccc(F)cc3)CC2)CC[C@]1(C(=O)O)c1ccccc1 [Levocabastine hydrochloride]
### Response 0.437

### Prompt Using known records, supply phenotypic distance for c1ccc2c(c1)[I+]c1ccccc1-2 [Diphenyleneiodonium chloride]
### Response 2.73

### Prompt Identify phenotypic distance associated with the compound COc1c(N2CCNC(C)C2)c(F)cc2c(=O)c(C(=O)O)cn(C3CC3)c12 (stereo unspecified)
### Response 0.561

### Prompt Give the measured phenotypic distance for CSc1ccc2c(c1)N(CCC1CCCCN1C)c1ccccc1S2 (stereo unspecified) [Thioridazine hydrochloride]
### Response 0.516

### Prompt Return reported phenotypic distance. Input compound: "C[C@@H](Oc1cc(-c2cnn(C3CCNCC3)c2)cnc1N)c1c(Cl)ccc(F)c1Cl"
### Response 0.774

### Prompt Fill in reported phenotypic distance for this entry: CC[C@@]1(O)C(=O)OCc2c1cc1n(c2=O)Cc2cc3cc(O)ccc3nc2-1 [Hydroxy Camptothecine]
### Response 3.08

### Prompt Input "CN(c1nccc(=O)[nH]1)C1CCN(c2nc3ccccc3n2Cc2ccc(F)cc2)CC1" , output reported phenotypic distance.
### Response 0.544

### Prompt Output phenotypic distance of "C/C=C1\NC(=O)[C@H]2CSSCC/C=C/[C@H](CC(=O)N[C@H](C(C)C)C(=O)N2)OC(=O)[C@H](C(C)C)NC1=O"
### Response 5.6

### Prompt Identify measured phenotypic distance associated with CCCCC1C(=O)N(c2ccccc2)N(c2ccc(O)cc2)C1=O (stereo unspecified)
### Response 0.51

### Prompt Look up and state reported phenotypic distance for COC(=O)C1=C(C)NC(C)=C(C(=O)OCC(C)C)C1c1ccccc1[N+](=O)[O-] (stereo unspecified)
### Response 1.4

### Prompt Answer with the recorded phenotypic distance for the compound listed here: "COc1ccc([C@@H]2CC(=O)c3c(O)cc(O[C@@H]4O[C@H](CO[C@@H]5O[C@@H](C)[C@H](O)[C@@H](O)[C@H]5O)[C@@H](O)[C@H](O)[C@H]4O)cc3O2)cc1O"
### Response 0.989

### Prompt Input "Cc1c2ccncc2c(C)c2c1[nH]c1ccccc12" , output reported phenotypic distance.
### Response 1.47

---

Test system: E34 (patient-derived glioblastoma stem cells of proneural subtype)
Test: phenotypic distance (Euclidean, principal components) from DMSO controls (arbitrary units); higher = stronger morphological change
Conditions: 12.3 nM; exposure time: 72 h
Where a name gives a salt, the structure may show the parent alone.
Kindly supply the reported phenotypic distance values for the records listed here.
Number only, please.

### Prompt Write down phenotypic distance measured for item CNCCc1ccccn1 [Betahistine mesylate]
### Response 0.75

### Prompt Specify measured phenotypic distance for CCCCC(CC)CNC(=N)NC(=N)NCCCCCCNC(=N)NC(=N)NCC(CC)CCCC (stereo not given) [Alexidine dihydrochloride] .
### Response 1.19

### Prompt Dear colleague, please send me the reported phenotypic distance for "CNc1ccc2oc(C[C@H]3O[C@@]4(CC[C@H]3C)O[C@H]([C@H](C)C(=O)c3ccc[nH]3)[C@H](C)C[C@H]4C)nc2c1C(=O)O" when you can.
### Response 1.06

### Prompt // Input: "Oc1c(Cl)cc(Cl)c(Cl)c1Cc1c(O)c(Cl)cc(Cl)c1Cl" . Output its phenotypic distance only.
### Response 0.839

### Prompt Check the records and state phenotypic distance for "C[C@H]1Oc2cc(cnc2N)-c2c(nn(C)c2C#N)CN(C)C(=O)c2ccc(F)cc21"
### Response 0.814
